Biological target: MbtI (Mycobacterium tuberculosis, UniProt P9WFX1)
Construct: made in house
Sequence (P9WFX1 whole entry): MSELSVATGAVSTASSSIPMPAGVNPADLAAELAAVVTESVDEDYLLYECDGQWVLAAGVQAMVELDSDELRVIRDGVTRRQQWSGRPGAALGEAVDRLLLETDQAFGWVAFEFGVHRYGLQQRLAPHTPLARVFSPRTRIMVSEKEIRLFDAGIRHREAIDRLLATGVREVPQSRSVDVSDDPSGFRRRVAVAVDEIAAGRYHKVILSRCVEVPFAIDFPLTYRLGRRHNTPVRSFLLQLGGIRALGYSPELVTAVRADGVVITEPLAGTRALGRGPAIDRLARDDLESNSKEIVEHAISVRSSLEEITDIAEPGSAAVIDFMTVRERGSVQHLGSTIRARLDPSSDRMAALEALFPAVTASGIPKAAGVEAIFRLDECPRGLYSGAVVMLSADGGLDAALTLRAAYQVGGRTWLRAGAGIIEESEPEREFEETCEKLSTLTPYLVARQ
Test: MbtI fluorimetric enzyme inhibition assay
Type: biochemical
Details: 100 μM test compound, 50 μM chorismic acid; read-out: % RA (percentage of residual enzymatic activity)
Protocol: MbtI from Mtb was produced in recombinant form, and enzyme activity was determined using a fluorimetric assay, as previously reported.[38] For the inhibition studies, the activity was determined in the presence of 100 μM of the test compound and 50 μM of chorismic acid. For compounds that inhibited more than 80% of the initial activity, IC50 values were calculated using eq 1 and GraphPad Prism 8.0 software [drawing 1] […]
assay endpoint: remaining activity at 100 µM

* CCCCOc1cc(C#N)cc(-c2ccc(C(=O)O)o2)c1 [Compound 1d] | < 1%

Problem: Quick one: remaining activity at 100 µM for C/C=C/C=C/COc1cc(C#N)cc(-c2ccc(C(=O)O)o2)c1 [Compound 1n] ?
Solution: 10%

Problem: Consider next the compound CC(C)Oc1cc(C#N)cc(-c2ccc(C(=O)O)o2)c1 [Compound 1b] in the same way.
Solution: 12.1%

Problem: Quick one: N#Cc1cc(OCC2CC2)cc(-c2ccc(C(=O)O)o2)c1 [Compound 1f]
Solution: 20%

====

Recorded remaining activity at 100 µM for the following compounds
Target: MbtI (Mycobacterium tuberculosis)
Construct: made in house
Experiment: MbtI fluorimetric enzyme inhibition assay
Format: biochemical
Conditions: 100 μM test compound, 50 μM chorismic acid; read-out: % RA (percentage of residual enzymatic activity)

- CC(C)CCOc1cc(C#N)cc(-c2ccc(C(=O)O)o2)c1: 1.6%
- N#Cc1cc(OCC2CCC2)cc(-c2ccc(C(=O)O)o2)c1: 30%
- CCOC(=O)c1ccc(-c2cc(C#N)cc(OCC(C)C)c2)o1: 71.5%
- CC=CCOc1cc(C#N)cc(-c2ccc(C(=O)O)o2)c1: 7.5%
- CCOc1cc(C#N)cc(-c2ccc(C(=O)O)o2)c1: 4.9%

Problem: Entry under review: `CCCOC(=O)c1ccc(-c2cc(C#N)cc(OCC(C)C)c2)o1` . Reported remaining activity at 100 µM?
Solution: 94%

Problem: `CC(C)(C)COc1cc(C#N)cc(-c2ccc(C(=O)O)o2)c1` ?
Solution: 6.8%

Problem: And the next one, `CC(C)COc1cc(C#N)cc(-c2ccc(C(=O)O)o2)c1` ?
Solution: 7%

Problem: Proceed to `CCCOc1cc(C#N)cc(-c2ccc(C(=O)O)o2)c1`
Solution: 2.5%

Problem: And what about the compound `CCCCCOc1cc(C#N)cc(-c2ccc(C(=O)O)o2)c1` ?
Solution: 0.4%

====

Target: MbtI (Mycobacterium tuberculosis, UniProt P9WFX1)
Construct: made in house
Assay: MbtI fluorimetric enzyme inhibition assay
Assay type: biochemical
Conditions: recombinant MbtI
assay endpoint: pIC50
Scale: negative log10 of molar concentration, which is what pIC50 denotes.

* CCCCCOc1cc(C#N)cc(-c2ccc(C(=O)O)o2)c1 | 5.17
* CCOc1cc(C#N)cc(-c2ccc(C(=O)O)o2)c1 | 4.93

Problem: Which pIC50 reading was recorded for the compound `CC(C)(C)COc1cc(C#N)cc(-c2ccc(C(=O)O)o2)c1` ?
Solution: 4.73

====

Molecular target: MbtI (Mycobacterium tuberculosis)
Construct: made in house
Test: MbtI fluorimetric enzyme inhibition assay
Assay type: biochemical
Conditions: 100 μM test compound, 50 μM chorismic acid; read-out: % RA (percentage of residual enzymatic activity)
Each entry below carries its reported remaining activity at 100 µM.
Give the value in % but do not write % after it.

Sample records with remaining activity at 100 µM:
* CCCCCCOc1cc(C#N)cc(-c2ccc(C(=O)O)o2)c1 | 6
* CCCCCCCCOc1cc(C#N)cc(-c2ccc(C(=O)O)o2)c1 | 40

Now examine the next entry.
Problem: What remaining activity at 100 µM appears in the records for this compound with MbtI (Mycobacterium tuberculosis)? `C/C=C/C=C/C=C/COc1cc(C#N)cc(-c2ccc(C(=O)O)o2)c1`
Solution: 18.4
